The origin of these recorded values is ChEMBL document CHEMBL1201862.

# Tested on: MOLT-4
# ASSAY_NAME: NCI tumour cell line growth inhibition, 48 h
The source made the active and inactive calls. No stated cut-off is given here; in the data, active = GI50 up to about 1.1 µM and inactive = higher.
For each of the compounds below, state its GI50.

Query block: State the recorded GI50 for this entry: c1c[nH]c(CN2CCN(Cc3ncc[nH]3)CC2)n1
Result block: > 100 µM (inactive)

Query block: Now consider NC(=S)N/N=C1\C(=O)N(c2cccc([N+](=O)[O-])c2)C(=O)C1C(=O)Nc1cccc([N+](=O)[O-])c1 (centres undefined) .
Result block: > 100 µM (inactive)

Query block: Now consider Cc1cccc(C)c1NC(=O)CCc1n[nH]c(=S)o1 .
Result block: > 100 µM (inactive)

Query block: Now consider CC(C)=CCC/C(C)=C/CC/C(C)=C/CSc1ccc(Cl)cc1C(=O)O .
Result block: 23.1 µM (inactive)
